molecular target: KRas G12A (Homo sapiens, UniProt P01116, G12A); type: binding; conditions: TR-FRET displacement, read-out: Binding to KRas (IC50 nM) G12A
Sequence (P01116 1-169 isoform P01116-2 G12A): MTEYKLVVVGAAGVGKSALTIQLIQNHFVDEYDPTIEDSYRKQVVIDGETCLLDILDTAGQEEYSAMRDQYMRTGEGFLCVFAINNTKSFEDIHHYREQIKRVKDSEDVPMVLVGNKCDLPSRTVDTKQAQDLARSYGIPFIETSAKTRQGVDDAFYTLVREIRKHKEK

# compound, unit.of.measure, IC50
data = [
    ("CCc1cccc2cccc(N3CCc4c(nc(OCC5(CN(C)C)CC5)nc4N4CCOC(C(F)F)CC4)C3)c12 (stereo not shown)", "nM", 291),
    ("CCc1cccc2cccc(N3CCc4c(nc(OCC5(CN(C)C)CC5)nc4NCc4ncc5c(n4)CCOC5)C3)c12", "nM", 6300),
    ("Cc1cc2[nH]ncc2c(N2CCc3c(nc(OCC45CCCN4CCC5)nc3N3CC4C(=O)NC(=O)C4C3)C2)c1C (stereo not shown)", "nM", 148),
    ("O=C1CC2(CCCN(c3nc(OCC45CCCN4CCC5)nc4c3CCN(c3cc(O)cc(Cl)c3C3CC3)C4)C2)N1 (stereo not shown)", "nM", 6),
]

* * *

target: KRas G12D (Homo sapiens, UniProt P01116, G12D); experiment: biochemical; settings: Binding to KRas (IC50 nM) G12D, TR-FRET displacement, KRas G12D
Sequence (P01116 1-169 isoform P01116-2 G12D): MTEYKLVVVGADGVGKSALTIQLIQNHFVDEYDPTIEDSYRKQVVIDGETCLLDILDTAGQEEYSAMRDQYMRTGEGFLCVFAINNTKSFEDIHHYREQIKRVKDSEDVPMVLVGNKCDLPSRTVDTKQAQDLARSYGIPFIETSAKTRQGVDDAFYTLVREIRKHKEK

# compound, result.modifier, IC50 [nM]
rows = [
    ("CCc1cccc2cccc(N3CCc4c(nc(OCC5(CN(C)C)CC5)nc4NCc4ncc5c(n4)CCOC5)C3)c12", "=", 7730),
    ("CCc1c(F)ccc2cc(O)cc(N3CCc4c(nc(OC[C@@]56CCCN5C[C@H](F)C6)nc4N4CCCn5nc(C(=O)N6C7CCC6CC7)cc5C4)C3)c12", "<", 2),
    ("Cc1cc2[nH]ncc2c(N2CCc3c(nc(OCC45CCCN4CCC5)nc3N3CCCC4(C3)NC(=O)NC4=O)C2)c1C (stereo not shown)", "=", 16),
    ("CCc1cccc2cccc(N3CCc4c(nc(OCC5(CN(C)C)CC5)nc4N4CCn5nnc(CO)c5C4)C3)c12", "=", 1260),
    ("CCc1cccc2cccc(N3CCc4c(nc(OCC5(CN(C)C)CC5)nc4N4CCCC(c5nnc[nH]5)C4)C3)c12 (stereo not shown)", "=", 3220),
    ("CCc1cccc2cccc(N3CCc4c(nc(OCC5(CN(C)C)CC5)nc4N4CCOCC(CC)C4)C3)c12 (stereo not shown)", "=", 1280),
    ("CCc1c(F)ccc2cc(O)cc(N3CCc4c(nc(OC[C@@]56CCCN5C[C@H](F)C6)nc4N4CCCn5nc(C(=O)N(C)CCOC)cc5C4)C3)c12", "<", 2),
    ("O=C1NC(=O)C2CN(c3nc(OCC45CCCN4CCC5)nc4c3CCN(c3cc(O)cc(Cl)c3C3CC3)C4)CC12 (stereo not shown)", "=", 4),
    ("CCc1cccc2cccc(N3CCc4c(nc(OCC5(CN(C)C)CC5)nc4N4CCOCC(O)C4)C3)c12 (stereo not shown)", "=", 340),
    ("CCc1c(F)ccc2cc(O)cc(N3CCc4c(nc(OC[C@@]56CCCN5C[C@H](F)C6)nc4N4CCCn5nc6c(c5C4)CCCNC6=O)C3)c12", "<", 2),
    ("CCc1c(F)ccc2cc(O)cc(N3CCc4c(nc(OC[C@@]56CCCN5C[C@H](F)C6)nc4N4CCCn5nc(C(=O)N6CC7CCC6CN7)cc5C4)C3)c12 (stereo partly shown)", "<", 2),
    ("CCc1c(F)ccc2cc(O)cc(N3CCc4c(nc(OC[C@@]56CCCN5C[C@H](F)C6)nc4N4CCCCC(COCC(=O)NC)C4)C3)c12 (stereo partly shown)", "=", 13),
    ("CN(C)C(=O)c1cc2n(n1)CCCN(c1nc(OC[C@@]34CCCN3C[C@H](F)C4)nc3c1CCN(c1ccc(F)c4sc(N)c(C#N)c14)C3)C2", "=", 17),
]
